Listed next: entries and their corresponding Relative Affinity.
target: T1, Insulin-like Growth Factor II (IGF-II), recombinant human (human, UniProt P01344 25-91, biotinyl group (site not stated) when immobilised for SPR; not biotinylated as SPR analyte or in ITC); experiment: SPR, steady-state KD relative to wild type domain 11
T1 construct: mature; Bought as Biotinyl-IGF-II from GroPep for immobilisation on streptavidin chips; also called IGF2; Biotinyl-IGF-II
T1 sequence (P01344 25-91): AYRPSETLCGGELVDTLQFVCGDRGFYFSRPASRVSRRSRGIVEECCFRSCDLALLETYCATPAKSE

{"binder": "IGF2R domain 11 E1544A (receptor, Secreted from Pichia pastoris) NEHDDCQVTNPSTGHLFDLSSLSGRAGFTAAYSAKGLVYMSICGENENCPPGVGACFGQTRISVGKANKRLRYVDQVLQLVYKDGSPCPSKSGLSYKSVISFVCRPEAGPTNRPMLISLDKQTCTLFFSWHTPLACEQATHHHHHH", "Relative Affinity": "2.79 fold vs wild type domain 11"}
{"binder": "IGF2R domain 11 E1544V (receptor, Secreted from Pichia pastoris) NEHDDCQVTNPSTGHLFDLSSLSGRAGFTAAYSVKGLVYMSICGENENCPPGVGACFGQTRISVGKANKRLRYVDQVLQLVYKDGSPCPSKSGLSYKSVISFVCRPEAGPTNRPMLISLDKQTCTLFFSWHTPLACEQATHHHHHH", "Relative Affinity": "1.96 fold vs wild type domain 11"}
{"binder": "IGF2R domain 11 E1544K (enhanced mutant) (receptor, Secreted from Pichia pastoris) NEHDDCQVTNPSTGHLFDLSSLSGRAGFTAAYSKKGLVYMSICGENENCPPGVGACFGQTRISVGKANKRLRYVDQVLQLVYKDGSPCPSKSGLSYKSVISFVCRPEAGPTNRPMLISLDKQTCTLFFSWHTPLACEQATHHHHHH", "Relative Affinity": "6.12 fold vs wild type domain 11"}
{"binder": "IGF2R domain 11, wild type, expressed in Pichia pastoris with C-terminal His6 tag (receptor, Alpha-factor signal is cleaved during secretion; soluble 17 kDa protein; also called WT; wild type domain 11) NEHDDCQVTNPSTGHLFDLSSLSGRAGFTAAYSEKGLVYMSICGENENCPPGVGACFGQTRISVGKANKRLRYVDQVLQLVYKDGSPCPSKSGLSYKSVISFVCRPEAGPTNRPMLISLDKQTCTLFFSWHTPLACEQATHHHHHH", "Relative Affinity": "1 fold vs wild type domain 11"}
